Cited source for all entries: the Human Domainome abundance scans (Beltran et al. 2025)

Overview of reported abundance fitness across a group of variants:
B1: Membrane-associated guanylate kinase, WW and PDZ domain-containing protein 1, residues 352 to 401; numbered along this chain, Q96QZ7 (parent)
chain: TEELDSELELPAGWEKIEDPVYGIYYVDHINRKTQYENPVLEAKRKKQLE

Variants of: B1
Experiment: abundance fitness (aPCA) (normalised: wild type 0, dead -1); higher = more abundant; growth selection in yeast, the domain comes from the species named
Settings: Homo sapiens

change: Q35G
abundance fitness: -0.487
//
change: K44F
abundance fitness: -0.186
//
change: A12Y
abundance fitness: -0.38
//
change: K47F
abundance fitness: -0.239
//
change: T1A
abundance fitness: -0.474
